Target: FGFR3 (wild type) on cells (human, UniProt P22607 23-806)
Sequence (P22607 23-806 limits assumed): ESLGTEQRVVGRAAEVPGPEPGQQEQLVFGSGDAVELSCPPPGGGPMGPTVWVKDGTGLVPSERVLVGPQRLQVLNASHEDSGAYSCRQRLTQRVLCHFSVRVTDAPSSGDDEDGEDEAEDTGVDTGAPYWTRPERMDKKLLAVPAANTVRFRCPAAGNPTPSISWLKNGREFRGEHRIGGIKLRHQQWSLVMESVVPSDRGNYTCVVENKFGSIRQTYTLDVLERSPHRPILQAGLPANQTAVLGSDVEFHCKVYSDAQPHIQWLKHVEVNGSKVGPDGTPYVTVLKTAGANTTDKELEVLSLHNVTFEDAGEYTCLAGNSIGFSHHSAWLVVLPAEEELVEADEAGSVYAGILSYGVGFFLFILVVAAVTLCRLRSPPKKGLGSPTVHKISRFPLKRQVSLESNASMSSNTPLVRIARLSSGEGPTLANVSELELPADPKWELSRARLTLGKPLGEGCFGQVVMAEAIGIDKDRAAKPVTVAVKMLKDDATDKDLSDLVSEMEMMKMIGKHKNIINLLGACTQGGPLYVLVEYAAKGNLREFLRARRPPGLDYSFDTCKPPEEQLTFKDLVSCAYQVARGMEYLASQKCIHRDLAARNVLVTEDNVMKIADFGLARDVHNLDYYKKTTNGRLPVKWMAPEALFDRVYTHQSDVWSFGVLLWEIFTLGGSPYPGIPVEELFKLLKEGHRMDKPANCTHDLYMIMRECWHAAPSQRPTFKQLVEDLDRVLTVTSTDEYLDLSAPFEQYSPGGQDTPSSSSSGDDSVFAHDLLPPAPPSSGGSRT
Assay: cell-based or functional assay
endpoint: IC50 FR3 (FGF9), FDCP-FGFR3 proliferation assay
State the value with its unit after it.

Form: binder = MSPRO2 (Fab, V domains shown) VH: QVQLVQSGAEVKKPGASVKVSCKASGYTFTSYYMHWVRQAPGQGLEWMGWINPNSGGTNYAQKFQGRVTMTRDTSISTAYMELSSLRSEDTAVYYCARDFLGYEFDYWGQGTLVTVSS VL: DIELTQPPSVSVAPGQTARISCSGDALGDKYASWYQQKPGQAPVLVIYDDSDRPSGIPERFSGSNSGNTATLTISGTQAEDEADYYCQSYDYSADYVFGGGTKLTVLG ; IC50 FR3 (FGF9), FDCP-FGFR3 proliferation assay = 360 nM

The recorded IC50 FR3 (FGF9), FDCP-FGFR3 proliferation assay for MSPRO12 (Fab, V domains shown, HuCAL Fab, framework VH2_L3) VH: QVQLKESGPALVKPTQTLTLTCTFSGFSLSTSGVGVGWIRQPPGKALEWLALIDWDDDKYYSTSLKTRLTISKDTSKNQVVLTMTNMDPVDTATYYCARYHSWYEMGYYGSTVGYMFDYWGQGTLVTVSS VL: DIELTQPPSVSVAPGQTARISCSGDALGDKYASWYQQKPGQAPVLVIYDDSDRPSGIPERFSGSNSGNTATLTISGTQAEDEADYYCQSYDFDFAVFGGGTKLTVLG is 58 nM

Reported IC50 FR3 (FGF9), FDCP-FGFR3 proliferation assay ( MSPRO54 (Fab, V domains shown) VH: QVQLVQSGAEVKKPGASVKVSCKASGYTFTSYYMHWVRQAPGQGLEWMGWINPNSGGTNYAQKFQGRVTMTRDTSISTAYMELSSLRSEDTAVYYCARNMAYTNYQYVNMPHFDYWGQGTLVTVSS VL: DIELTQPPSVSVAPGQTARISCSGDALGDKYASWYQQKPGQAPVLVIYDDSDRPSGIPERFSGSNSGNTATLTISGTQAEDEADYYCQSYDYFKLVFGGGTKLTVLG ) = 45 nM

response.value for MSPRO59 (Fab, V domains shown, HuCAL Fab, framework VH6_L3) VH: QVQLQQSGPGLVKPSQTLSLTCAISGDSVSSNSAAWNWIRQSPGRGLEWLGRTYYRSKWYNDYAVSVKSRITINPDTSKNQFSLQLNSVTPEDTAVYYCARSYYPDFDYWGQGTLVTVSS VL: DIELTQPPSVSVAPGQTARISCSGDALGDKYASWYQQKPGQAPVLVIYDDSDRPSGIPERFSGSNSGNTATLTISGTQAEDEADYYCQSYDGPDLWVFGGGTKLTVLG (field: IC50 FR3 (FGF9), FDCP-FGFR3 proliferation assay) = 19 nM

For this binder ( MSPRO11 (Fab, V domains shown) VH: QVQLVQSGAEVKKPGASVKVSCKASGYTFTSYYMHWVRQAPGQGLEWMGWINPNSGGTNYAQKFQGRVTMTRDTSISTAYMELSSLRSEDTAVYYCARYYGSSLYHYVFGGFIDYWGQGTLVTVSS VL: DIALTQPASVSGSPGQSITISCTGTSSDVGGYNYVSWYQQHPGKAPKLMIYDVSNRPSGVSNRFSGSKSGNTASLTISGLQAEDEADYYCQSHHFYEVFGGGTKLTVLG ), measured IC50 FR3 (FGF9), FDCP-FGFR3 proliferation assay is 220 nM

FYI, the data here is from patent US20090202547A1.
